assay: Half life in Sprague-Dawley rat at 20 mg/kg, po administered as single dose measured for 0.25 to 24 hrs by LC-MS/MS analysis; format: ADME, organism-based; settings: in vivo
quantity-kind: half-life (h)

CC[C@H]1OC(=O)[C@H](C)[C@@H](OC(=O)NCCCc2cccnc2)[C@H](C)[C@@H](O[C@@H]2O[C@H](C)C[C@H](N(C)C)[C@H]2O)[C@](C)(OC)C[C@@H](C)/C(=N\OC)[C@H](C)[C@H]2OC(=O)O[C@@]21C ... 2.94

---

test system: Streptococcus pyogenes; assay: Ratio of MBC to MIC for inducibly erythromycin resistant Streptococcus pyogenes 01-968 expressing i-ermA; format: functional
Ratio overview
quantity-kind: Ratio

CC[C@H]1OC(=O)[C@H](C)[C@@H](OCC#Cc2ccc(-c3ccccn3)s2)[C@H](C)[C@@H](O[C@@H]2O[C@H](C)C[C@H](N(C)C)[C@H]2O)[C@](C)(OC)C[C@@H](C)/C(=N\OC)[C@H](C)[C@H]2OC(=O)O[C@@]21C ... 8
CC[C@H]1OC(=O)[C@H](C)[C@@H](OC(=O)CCNCCNc2cc3c(=O)c(C(=O)O)cn(C4CC4)c3cc2Cl)[C@H](C)[C@@H](O[C@@H]2O[C@H](C)C[C@H](N(C)C)[C@H]2O)[C@](C)(OC)C[C@@H](C)/C(=N\OC)[C@H](C)[C@H]2OC(=O)O[C@@]21C ... 2
CC[C@H]1OC(=O)[C@H](C)[C@@H](OC(=O)NCCCc2cccnc2)[C@H](C)[C@@H](O[C@@H]2O[C@H](C)C[C@H](N(C)C)[C@H]2O)[C@](C)(OC)C[C@@H](C)/C(=N\OC)[C@H](C)[C@H]2OC(=O)O[C@@]21C ... 8
CC[C@H]1OC(=O)[C@H](C)[C@@H](OC(=O)CCNCCCc2ccc(-n3ccnc3)cc2)[C@H](C)[C@@H](O[C@@H]2O[C@H](C)C[C@H](N(C)C)[C@H]2O)[C@](C)(OC)C[C@@H](C)/C(=N\OC)[C@H](C)[C@H]2OC(=O)O[C@@]21C ... 2

---

assay: Tmax in Sprague-Dawley rat at 20 mg/kg, po administered as single dose measured for 0.25 to 24 hrs by LC-MS/MS analysis; format: ADME, organism-based; conditions: in vivo
quantity-kind: Tmax (min)

CC[C@H]1OC(=O)[C@H](C)[C@@H](OC(=O)NCCCc2cccnc2)[C@H](C)[C@@H](O[C@@H]2O[C@H](C)C[C@H](N(C)C)[C@H]2O)[C@](C)(OC)C[C@@H](C)/C(=N\OC)[C@H](C)[C@H]2OC(=O)O[C@@]21C ... 50

---

test system: Staphylococcus epidermidis; assay: Antimicrobial activity against Staphylococcus epidermidis E1 incubated in CAMHB medium for 20 hrs by two-fold microbroth dilution method; format: functional; conditions: E1, 20 h
quantity-kind: MIC (µg/mL)

C=CCO/N=C1\[C@H](C)C[C@@](C)(OC)[C@H](O[C@@H]2O[C@H](C)C[C@H](N(C)C)[C@H]2O)[C@@H](C)[C@H](OCC#Cc2cncc(N)c2)[C@@H](C)C(=O)O[C@H](CC)[C@@]2(C)OC(=O)O[C@@H]2[C@H]1C ... 256
C=CCO/N=C1\[C@H](C)C[C@@](C)(OC)[C@H](O[C@@H]2O[C@H](C)C[C@H](N(C)C)[C@H]2O)[C@@H](C)[C@H](OCC#Cc2cccnc2N)[C@@H](C)C(=O)O[C@H](CC)[C@@]2(C)OC(=O)O[C@@H]2[C@H]1C ... 256
